test system: housefly; test: Insecticidal activity against housefly (Topical application method); assay type: in vivo; conditions: dorsal thorax, adult female, 24 hours
Quantity: LD50 (median lethal dose) (μg/female)
Entry rule: numbers only, all in μg/female.

Lab note: measured LD50 (median lethal dose) of CC1(C)[C@@H](C(=O)OC(C#N)c2cccc(Oc3ccccc3)c2)[C@@]12Cc1ccccc1O2 (relative stereo) was 0.0061

Lab note: measured LD50 (median lethal dose) of CC1(C)C(C(=O)OC(C#N)c2cccc(Oc3ccccc3)c2)C12Cc1ccc(F)cc1C2 (stereo not drawn) was 0.0042

Lab note: measured LD50 (median lethal dose) of CC1(C)C(C(=O)O[C@H](C#N)c2cccc(Oc3ccccc3)c2)C12Cc1ccccc1C2 (stereo partly drawn) [Compound 9] was 0.0013

Lab note: measured LD50 (median lethal dose) of CC1(C)C(C(=O)OC(C#N)c2cccc(Oc3ccccc3)c2)C12Cc1ccc(Br)cc1C2 (stereo not drawn) was 0.018

Lab note: measured LD50 (median lethal dose) of CC1(C)C(C(=O)OC(C#N)c2cccc(Oc3ccccc3)c2)C12Cc1ccc(Cl)cc1C2 (stereo not drawn) was 0.0076

Lab note: measured LD50 (median lethal dose) of CC1(C)C(C(=O)OCc2coc(Cc3ccccc3)c2)C12Cc1ccccc1C2 (stereo not drawn) was 0.023

Lab note: measured LD50 (median lethal dose) of CC1(C)[C@@H](C(=O)OC(C#N)c2cccc(Oc3ccccc3)c2)[C@]12Cc1ccccc1O2 (relative stereo) was 0.064

Lab note: measured LD50 (median lethal dose) of CC1(C)C(C(=O)OC(C#N)c2cccc(Oc3ccccc3)c2)C12Cc1ccccc1C2 (stereo not drawn) was 0.0045

Lab note: measured LD50 (median lethal dose) of C#CCC=C(C)C(C#C)OC(=O)C1C(C)(C)C12Cc1ccccc1C2 (stereo not drawn) was 0.045

Lab note: measured LD50 (median lethal dose) of CC1(C)C(C(=O)OC(C#N)c2ccc(F)c(Oc3ccccc3)c2)C12Cc1ccccc1C2 (stereo not drawn) was 0.0044

Lab note: measured LD50 (median lethal dose) of CC1(C)C(C(=O)OC(C#N)c2cccc(Oc3ccccc3)c2)C12C=Cc1ccccc12 (stereo not drawn) [drawing 61, reference compound] was 0.16

Lab note: measured LD50 (median lethal dose) of CC1(C)C(C(=O)O[C@H](C#N)c2cccc(Oc3ccccc3)c2)C12Cc1ccccc1C2 (stereo partly drawn) [Compound 8] was 0.0032

Lab note: measured LD50 (median lethal dose) of CC(C)=CC1C(C(=O)OC(C#N)c2cccc(Oc3ccccc3)c2)C1(C)C (stereo not drawn) [reference compound] was 0.079

Lab note: measured LD50 (median lethal dose) of CC(C)=CC1C(C(=O)OCc2cccc(Oc3ccccc3)c2)C1(C)C (stereo not drawn) [drawing 58, reference compound] was 0.26

Lab note: measured LD50 (median lethal dose) of CC1(C)C(C(=O)OC(C#N)c2cccc(Oc3ccccc3)c2)C12Cc1c(F)c(F)c(F)c(F)c1C2 (stereo not drawn) was 0.0052

----------
test system: housefly; test: Activity of oil spray against adult housefly (glass chamber); assay type: in vivo; conditions: oil spray 0.5 ml, 10 minutes exposure, observed on the following day; 1440 min
Mark Yes for reported mortality, House fly of 40% or greater; mark No for anything smaller.

// query Decide: mortality, House fly of C#CCN1CC(=O)N(COC(=O)C2C(C)(C)C23Cc2ccccc2C3)C1=O (stereo not drawn) [Compound 22] >= 40%?
// result Yes

// query Decide: mortality, House fly of CC1(C)C(C(=O)OC(C#N)c2cccc(Oc3ccccc3)c2)C12Cc1ccccc12 (stereo not drawn) [Compound 19] >= 40%?
// result Yes

// query Decide: mortality, House fly of CC1(C)C(C(=O)OCN2C(=O)C3=C(CCCC3)C2=O)C12Cc1ccccc1C2 (stereo not drawn) [Compound 12] >= 40%?
// result No

// query Decide: mortality, House fly of C#CCC=C(C)C(C#C)OC(=O)C1C(C)(C)C12Cc1ccccc1C2 (stereo not drawn) [Compound 23] >= 40%?
// result Yes

// query Decide: mortality, House fly of CC1(C)[C@@H](C(=O)OC(C#N)c2cccc(Oc3ccccc3)c2)[C@@]12Cc1ccccc1O2 (relative stereo) [Compound 18] >= 40%?
// result No

// query Decide: mortality, House fly of C#CCC1=C(C)C(OC(=O)C2C(C)(C)C23Cc2ccccc2C3)CC1=O (stereo not drawn) [Compound 10] >= 40%?
// result No

// query Decide: mortality, House fly of C=CCC1=C(C)C(OC(=O)C2C(C)(C)C23Cc2ccccc2C3)CC1=O (stereo not drawn) [Compound 15] >= 40%?
// result No

// query Decide: mortality, House fly of CC1(C)[C@@H](C(=O)OC(C#N)c2cccc(Oc3ccccc3)c2)[C@]12Cc1ccccc1O2 (relative stereo) [Compound 17] >= 40%?
// result Yes
